The reported numbers originate from patent US20240218054A1.

# Assay target: T1, recombinant YFV E protein (soluble E, sE; YFV Asibi strain) (Yellow fever virus, Asibi strain, UniProt Q6DV88 286-678)
# T1 construct: also called YFV E antigen; YFV E monomer
# T1 sequence (Q6DV88 286-678): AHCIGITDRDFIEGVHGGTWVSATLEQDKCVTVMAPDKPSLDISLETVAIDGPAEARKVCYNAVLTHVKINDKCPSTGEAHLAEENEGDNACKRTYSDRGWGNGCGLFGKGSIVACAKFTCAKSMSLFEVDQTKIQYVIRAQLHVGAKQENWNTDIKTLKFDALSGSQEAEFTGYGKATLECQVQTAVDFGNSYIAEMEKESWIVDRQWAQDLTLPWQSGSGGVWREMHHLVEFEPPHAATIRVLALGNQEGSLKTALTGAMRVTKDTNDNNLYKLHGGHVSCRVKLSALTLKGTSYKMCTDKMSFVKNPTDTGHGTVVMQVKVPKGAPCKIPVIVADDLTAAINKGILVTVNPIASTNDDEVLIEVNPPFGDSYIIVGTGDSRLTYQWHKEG
# Protocol text: BLI monovalent (IgG on tip)
Kd by entry:
Reply numerically in nM, unit not repeated.

ADI-48969 (antibody, V domains shown, full-length IgG; also called Antibody Number 12) VH: QVTLKESGGALVKPAGSLTLSCAASGFTFGDYYMSWIRQAPGKGLEWISYISSSGSSIYYTDSVRGRFTISRDNARNSLYLQMNSLRVEDTAVYYCAREFSSRPFDLWGQGTLVTVSS VL: QSVLTQPRSVSGSPGQSVTISCTGTSSDVGAYNFVSWYQQYPGKAPKLMIYDVNKRPSGVPDRFSGSKSGNTASLTISGLQAEDEADYHCCSYAGTYTSNYVFGSGTKVTVL :: 5.86

Recorded Kd (binder ADI-49205 (antibody, V domains shown, full-length IgG; also called Antibody Number 148) VH: EVQLVESGGGVVQTGRSLRLSCAASGFTFSISGMHWVRQAPGKGLEWVALIWYDGTKKYYADSVKGRFTISRDDFKNTVYLQMNSLRADDTAVYYCARIKSDAFDLWGQGTTVTVSS VL: QSALTQPPSASGSPGQSVTISCTGTSSDVGGFNYVSWYQQHPGRAPKLVIYEVNRRPSGVPDRFSGSKSGYTASLTVSGLQAEDEADYYCFSYAGSNNYVFGTGTKVTVL ): 12.9

Recorded Kd (binder ADI-42206 (antibody, V domains shown, full-length IgG; also called Antibody Number 132) VH: QVQLVQSGGGLVQPGGSLRLSCAASGFTFSDHYMDWVRQAPGKGLEWVGRIRNKVNSYTTEYAASVKGRFTISRDDSKNSLYLQMNSLKTEDTAVYYCGRDRGWLDIWGQGTMVTVSS VL: QSVLTQPASVSGSPGQSITISCTGTSSDVGGYNYVSWYQQHPGKAPKLMIYDVTNRPSGVSNRFSGSRSGNTASLTISGLQAEDEADYYCSSYTRSSTRVFGGGTKLTVL ): 1.73

Recorded Kd (binder ADI-49033 (antibody, V domains shown, full-length IgG; also called Antibody Number 7) VH: EVQLVESGGGLVQPGGSLRLSCAASGLIFRNYAMSWVRQAPGKGLEWVSSFSGSGGSAYYADSVKGRFTISRDNSKSTVYLQMNRLRVEDTAVYYCAKDMAVSVHRGWFDDWGQGTLVTVSS VL: EIVMTQSPSALSASVRDRVTITCRASQSIGSDLNWYQQRPGKAPMLLIYAATGLQSGVPSRFSGSGSGTDFTLTISNLQPEDFATYYCQQSYSPPMYTFGQGTKVDIK ): 18

Recorded Kd (binder ADI-50219 (antibody, V domains shown, full-length IgG; also called Antibody Number 27) VH: QVQLQESGPGLVKPSETLSLTCTVSGDSISVSYWSWIRQFPGKGLEWIGYIYNSGNANYNPSLESRVTISIDTSKNRFSLRLSSVTAADTAVYYCAGHREDPYGAYGASWGQGTLVTVSS VL: EIVLTQSPATLSSSPGERATLSCRASQSVNSYLVWYQQKPGQAPRLLIYDASNRATGIPARFTGSGSGTDFTLTISSLEPEDFAVYYCQQRTNWPFTFGQGTKVDIK ): 0.859
